Overview of reported # of Redox cycles over 7 days across a group of compounds:
system: PA14; test: Redox cycles over 7 days and support of survival (Table 1); assay type: cell-based, P. aeruginosa
# output: bare number, no unit

[
  {
    "COMPOUND": "Cn1c2cccc(=O)c-2nc2ccccc21 [PYO, Pyocyanin]",
    "# of Redox cycles over 7 days": 31
  }
]

Now for the compound whose # of Redox cycles over 7 days we want.
Input O=C(O)c1cccc2nc3ccccc3nc12 [PCA, Phenazine-1-carboxylate] . Output # of Redox cycles over 7 days: 22

###

test system: PA14; experiment: Redox cycles over 7 days and support of survival (Table 1); assay type: cell-based, P. aeruginosa

[
  {
    "COMPOUND": "Oc1cccc2nc3ccccc3nc12 [1-OH-PHZ, 1-Hydroxyphenazine]",
    "# of Redox cycles over 7 days": 14
  },
  {
    "COMPOUND": "O=C(O)Cc1cc(O)ccc1O [Homogentisic acid (HMA), Homogentisic acid]",
    "# of Redox cycles over 7 days": "No cycle"
  },
  {
    "COMPOUND": "CN(C)c1ccc2nc3ccc(=[N+](C)C)cc-3sc2c1 [Methylene blue (MB), Methylene blue]",
    "# of Redox cycles over 7 days": 3
  },
  {
    "COMPOUND": "O=C1c2ccc(S(=O)(=O)O)cc2C(=O)c2ccc(S(=O)(=O)O)cc21 [2,6-AQDS]",
    "# of Redox cycles over 7 days": "No cycle"
  }
]
